System: TNF-α-induced adhesion of U937 monocytic cells to HT-29 cells
Assay: TNF-α-induced colonic epithelial cell adhesion assay
Assay type: cell-based, human
Conditions: Homo sapiens, Epithelial cell, 10 uM; U937 adhesion to HT-29 cells, TNF-α-induced
Procedure: Synthesized mollugin derivatives were subjected to the colonic epithelial cell adhesion assay, which mimics the initial stage of colon inflammation. […] U937 monocytic cell adhesion to colonic epithelial cells was evaluated using human U937 pre-monocytic cells, which were prelabeled with 2′,7′-bis(2-carboxyethyl)-5(6)-carboxyfluorescein acetoxymethyl ester (BCECF/AM, 10 μg/mL) for 1 h at 37 °C. […]
RESULT TYPE: inhibition at 10 µM (%)

>>> observed_result("CN1CCN(C(=O)c2c3c(c4ccccc4c2O)OC(C)(C)C=C3)CC1")
37.4
>>> observed_result("CCNC(=O)c1c2c(c3ccccc3c1O)OC(C)(C)C=C2")
38.4
>>> observed_result("CC1(C)C=Cc2c(C(N)=O)c(O)c3ccccc3c2O1")
42.6
>>> observed_result("CC1(C)C=Cc2c(C(=O)OCCN3CCOCC3)c(O)c3cc(F)ccc3c2O1 [15a]")
36.6
>>> observed_result("CN1CCC(OC(=O)c2c3c(c4ccccc4c2O)OC(C)(C)C=C3)CC1")
54.8
>>> observed_result("CC1(C)C=Cc2c(C(=O)OCCN3CCOCC3)c(O)c3ccc(F)cc3c2O1 [15d]")
47
>>> observed_result("COC(=O)c1c2c(c3cc(F)ccc3c1O)OC(C)(C)C=C2 [14d]")
24.9
>>> observed_result("CCN1CCN(C(=O)c2c3c(c4ccccc4c2O)OC(C)(C)C=C3)CC1")
46.2
